# Enzyme degradation CDK2 (% remaining) @ 1 μM per entry
Target: CDK2 (Homo sapiens)
Construct: endogenous in cells; host or cells: MDA-MB-231
Experiment: CDK protein degradation activity (Western blotting), CDK2
Assay type: cell-based
Settings: MDA-MB-231 cells, 1 μM, 16 hours, Western blot
Value Kind: Enzyme degradation CDK2 (% remaining) @ 1 μM

{"Molecule": "Cc1cccc(C(=O)NC2CC(n3cnc4c(Nc5ccc(N6CCN(CC7CCN(c8ccc9nnn([C@H]%10CCC(=O)NC%10=O)c(=O)c9c8)CC7)CC6)cc5)ncnc43)C2)n1 (stereo partly shown) [Compound 378]", "Test Value": "10/10/10%"}
{"Molecule": "O=C1CC[C@@H](c2ccc(OCC(=O)N3CCC(CN4CCN(c5ccc(Nc6ncnc7c6ncn7[C@H]6C[C@@H](NC(=O)c7cccc(Cl)n7)C6)cc5)CC4)CC3)cc2)C(=O)N1 [Compound 440]", "Test Value": "20/20/20%"}
{"Molecule": "O=C1CC[C@H](N2C(=O)c3cccc(NCC(=O)N4CCC(CN5CCN(c6ccc(Nc7ncnc8c7ncn8[C@H]7C[C@@H](NC(=O)c8c(Cl)cccc8Cl)C7)cc6)CC5)CC4)c3C2=O)C(=O)N1 [Compound 165]", "Test Value": "10/10/10%"}
{"Molecule": "O=C1CCC(N2C(=O)c3ccc(N4CCC(C(=O)N5CCC(CN6CCN(c7ccc(Nc8ncnc9c8ncn9[C@H]8C[C@@H](NC(=O)c9cccc(Cl)n9)C8)cc7)CC6)CC5)CC4)cc3C2=O)C(=O)N1 (stereo partly shown) [Compound 452]", "Test Value": "30/30/30%"}
